- measured.target: T1, 7BP: fusion protein comprising the extracellular domain of RXFP1 and the transmembrane domain of CD8, on cells (UniProt Q9HBX9 1-409)
- T1 construct: extracellular domain;domain: transmembrane domain; also called 7BP cells; not shown: transmembrane domain of CD8
- T1 sequence (looked up): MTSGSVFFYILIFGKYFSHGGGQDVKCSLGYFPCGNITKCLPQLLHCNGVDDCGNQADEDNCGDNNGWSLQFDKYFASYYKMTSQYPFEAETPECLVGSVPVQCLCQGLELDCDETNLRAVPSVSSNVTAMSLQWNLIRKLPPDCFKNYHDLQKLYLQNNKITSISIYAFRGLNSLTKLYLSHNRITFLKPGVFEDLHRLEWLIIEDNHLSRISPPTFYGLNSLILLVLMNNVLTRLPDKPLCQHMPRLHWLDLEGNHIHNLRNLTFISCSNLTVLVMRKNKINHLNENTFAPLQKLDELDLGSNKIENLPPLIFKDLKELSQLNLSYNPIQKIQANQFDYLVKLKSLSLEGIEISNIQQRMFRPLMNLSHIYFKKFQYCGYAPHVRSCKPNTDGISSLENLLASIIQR
- test.details: Eu-H2 relaxin competition on 7BP cells
Ends that are not written are not given here.
Recorded measurements of pKi, one per entry
# value in log M; strip the unit string

Example binders with recorded pKi:
>>> value_observed("Ac-VIKLSGAELVRAQIAISGMSTWSKRSL-NH2 [R13A (AcB7-33 C11.23S)]")
5.76
>>> value_observed("VIKLSGRELVRAQIAISGMSTWSKRSL-NH2 (also called single chain B7-33 C11.23S peptide) [Modified B7-33 (B7-33 C11.23S)]")
7.65
>>> value_observed("native H2 relaxin (human relaxin-2, heterodimer of A chain and B1-29 B chain) (ligand, disulfide (positions not given here); ends not checked; also: three disulfides (two inter-chain, one within A chain), places not given here, mature; Two chains linked by three disulfide bonds (two inter-chain, one within the A chain); also called native human relaxin-2; Eu^3+-labelled H2 relaxin (tracer form)) chain 1: QLYSALANKCCHVGCTKRSLARFC chain 2: DSWMEEVIKLCGRELVRAQIAICGMSTWS")
8.97
>>> value_observed("Ac-VIKLSGAELVAAQAAISGMSTWSKRSL-NH2 [R13/17A I20A (AcB7-33 C11.23S)]")
5.54

pKi reported for this binder Ac-VIKLSGRELVRAQIAISGMSTWSKKKK-NH2 (AcB7-29 C11.23S with KKKK at the C-terminus in place of KRSL) [KKKK (AcB7-29 C11.23S)] : 8.91

Form field pKi, entry Ac-VIKLSGRELVAAQIAISGMSTWSKRSL-NH2 [R17A (AcB7-33 C11.23S)] : 6.01

The binder listed as Ac-VIKLSGRELVRAQIAISGMSTWSKRSL-NH2 [AcB7-33 C11.23S] has a reported pKi of 7.54
